Measured values drawn from the pKa sets of Baltruschat and Czodrowski (2020) for this set.

Readings of pKa for the listed compounds
observed property: pKa

> print(dat)
                                    compound  quantitative.result
 1  COc1ccc(-c2c(C)nc3c(-c4ccccn4)cnn3c2N)cc1                 6.07
 2  COc1ccc(SC)c2c1C[C@@H]1[C@@H](C2)OCC[NH+]1C                 6.25
 3        Fc1ccc2c(/C=C/c3nn[n-]n3)c[nH]c2c1                 4.94
 4  COc1ccc(N2CCc3c(-n4ccc(N5CCNC5=O)n4)cc(C)nc32)c(C)c1                 6.37
 5  CCOCC(=O)N1CCC(CNc2nc3c(s2)CCOc2ccc(F)cc2-3)CC1                  3.7
 6  O=C1NC(=O)C(c2c[nH]c3ccccc23)=C1c1nc(N2CCOCC2)nc2ccccc12                  9.3
 7  Cc1ncc(-c2ccc(C(F)(F)F)cc2)c(NC2C3CC4CC(C3)CC2C4)n1 (configuration not stated)                    6
 8  N#Cc1ncc2cc(COc3cccc(CCC(=O)[O-])c3)n(CCC3CCCCC3)c2n1                  4.5
 9  CNC(=O)c1c(NCC2CCC3(CCC3)CC2)nc(C#N)nc1OCCC1CC[NH+](C)CC1                 10.2
10  CS(=O)(=O)Nn1c(=O)[nH]c2cc(C(F)(F)F)ccc2c1=O                 8.35
11  Brc1ccc(C2CN3C=CSC3=[NH+]2)cc1 (configuration not stated)                 8.55
12  CN(CCO)c1cc2c(=O)n(NS(C)(=O)=O)c(=O)[nH]c2cc1C(F)(F)F                  8.3
13  CC(C)(C)c1ccc(S(=O)(=O)Nc2ccc(Cl)cc2C(=O)c2cc[n+]([O-])cc2)cc1                 6.87
14  Cn1c(=O)n(NS(C)(=O)=O)c(=O)c2ccc(Cl)cc21                  6.8
15  CCC1CCCCN1C(=O)c1cnc(Nc2ccc(C)nc2)c(Cl)c1 (configuration not stated)                  5.3
16                   COc1ccc(SCCc2ccncc2)cc1                  5.6
17  O=NC(=O)CCc1ccc(C[NH+]2CCC(c3c[nH]c4ccccc34)CC2)cc1                 8.55
18          O=C([O-])COc1ccc(Cl)cc1C1CCCCCC1                 3.48
19  CS(=O)(=O)c1ccc(-c2nc3c(c(=O)[nH]2)COCC3)cc1                 7.31
20  Cc1onc(-c2ccccc2)c1-c1ccc(S(N)(=O)=O)cc1                   10
21  O=S(=O)(c1ccccc1)N(CC(F)(F)F)c1ccc(C(O)(C(F)(F)F)C(F)(F)F)cc1                  8.2
22  CC1CCCN(C(=O)c2ccc(Nc3ccc(Cl)cc3)nc2)C1 (configuration not stated)                  3.4
23  N#Cc1ncc2cc(COc3ccc(C(=O)[O-])cc3)n(CCC3CCCCC3)c2n1                  4.2
24  Cc1cc(C)nc(N2CCC3(CCCN(Cc4c[nH]c5ccccc45)C3=O)CC2)n1                 4.94
25  CNC(=O)c1c(NCC2CCC3(CCC3)CC2)nc(C#N)nc1OC1CC(C)(C)[NH2+]C(C)(C)C1                  9.2
26  O=c1[nH]c(-c2ccc(C(F)(F)F)cc2)nc2c1CSCC2                 7.94
27     CC(=C(C#N)C#N)c1ccc2cc(N(C)CCF)ccc2c1                  2.4
28  OCCn1cc(-c2cnc3nnn(Cc4ccc5ncccc5c4)c3n2)cn1                  4.6
29  CC(C)n1c(/C=C/[C@H](O)C[C@H](O)CC(=O)[O-])c(-c2ccc(F)cc2)c2ccccc21                  4.5
30  CC(C)N(CCCCOCC(=O)[O-])c1cnc(-c2ccccc2)c(-c2ccccc2)n1                 3.38
31  NS(=O)(=O)Oc1ccc2nc(C=C3C4CC5CC(C4)CC3C5)oc2c1                 8.26
32  CC(C)COC(=O)Nc1ccc(-c2cnc3c(-c4ccc(N5CC[NH+](C)CC5)cc4)cnn3c2N)cc1                  8.2
